# ASSAY_PROTOCOL: Serum deferiprone time-concentration profile (HPLC) in the 52-week monkey study
# Format: in vivo, cynomolgus monkeys
# REPORTED_CONDITIONS: both sexes, cynomolgus monkey, serum, oral; 75 mg/kg twice daily; range in individuals

MOLECULE | half-life
Cc1c(O)c(=O)ccn1C [Deferiprone, 3-hydroxy-1,2-dimethylpyridin-4-one] | 0.35 to 2.39 h

Values were extracted from patent US20090023784A1.
